Known EC50 of a selection of compounds
Biological target: (Homo sapiens)
Sequence (P43220 24-463): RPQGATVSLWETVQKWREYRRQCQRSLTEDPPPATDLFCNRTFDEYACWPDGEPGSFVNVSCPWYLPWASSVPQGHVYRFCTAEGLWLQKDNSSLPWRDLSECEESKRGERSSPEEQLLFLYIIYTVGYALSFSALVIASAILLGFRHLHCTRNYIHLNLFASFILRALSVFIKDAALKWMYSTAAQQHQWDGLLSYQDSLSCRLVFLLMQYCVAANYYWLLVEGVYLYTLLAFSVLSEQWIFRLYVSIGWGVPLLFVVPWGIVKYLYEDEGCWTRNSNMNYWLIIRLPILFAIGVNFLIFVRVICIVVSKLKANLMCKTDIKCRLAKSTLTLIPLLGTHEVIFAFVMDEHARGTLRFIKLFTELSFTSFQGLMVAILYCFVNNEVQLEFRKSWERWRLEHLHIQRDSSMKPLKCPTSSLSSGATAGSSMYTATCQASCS
Assay: h-GLP-1 activity assay (cAMP HTRF, HEK293 cells with stable expression of human GLP-1)
Details: relative EC50, 10 nM human GLP-1 set as 100% response, 30 min at 37° C.

Check out these entries, answers already filled in.
compound: C[C@H]1c2c(nn(-c3ccc(F)c(OC(F)(F)F)c3)c2-n2ccn(-c3ccc4c(cnn4C)c3F)c2=O)CCN1C(=O)c1cn2cc([C@@H]3CCOC(C)(C)C3)ccc2c1C1(c2noc(=O)[nH]2)CC1 (single isomer, unassigned)
result: < 20 nM

compound: Cc1cc(-n2nc3c(c2-n2ccn(-c4ccc5c(cnn5C)c4F)c2=O)[C@H](C)N(C(=O)c2cn4cc([C@H]5CCOC(C)(C)C5)ccc4c2C2(c4noc(=O)[nH]4)CC2)CC3)cc(C)c1F (single isomer, unassigned)
result: 20 to 100 nM

compound: Cc1cc(-n2nc3c(c2-n2ccn(-c4ccc5c(cnn5C)c4F)c2=O)[C@H](C)N(C(=O)c2nn4cc([C@@H]5CCOC(C)(C)C5)ccc4c2C2(c4noc(=O)[nH]4)CC2)CC3)cc(C)c1F (single isomer, unassigned)
result: < 20 nM

Now examine the next entry.
INPUT: Recall and state the measured EC50 for Cc1cc(-n2nc3c(c2-n2ccn(-c4ccc5c(cnn5C)c4F)c2=O)CN(C(=O)c2cc4cc(C5CCOC(C)(C)C5)ccc4n2Cc2cc(O)ns2)CC3)cc(C)c1F (racemic) .
OUTPUT: > 100 nM

* * *

Experiment: Pharmacokinetics after oral gavage in fasted SD rats
Type: in vivo
Conditions: rat, 5 mg/kg, plasma
measure: Cmax (ng/mL)

Check out these entries, answers already filled in.
compound: C[C@H]1c2c(nn(-c3ccc(F)c(C4CC4)c3)c2-n2ccn(-c3ccc4c(cnn4C)c3F)c2=O)CCN1C(=O)c1cn2cc([C@@H]3CCOC(C)(C)C3)ccc2c1C1(c2noc(=O)[nH]2)CC1 (single isomer, unassigned) [Compound 76]
Cmax (ng/mL): 962
--
compound: C[C@H]1c2c(nn(-c3ccc(F)c(C4CC4)c3)c2-n2ccn(-c3ccc4c(cnn4C)c3F)c2=O)CCN1C(=O)c1cn2nc([C@@H]3CCOC(C)(C)C3)ccc2c1C1(c2noc(=O)[nH]2)CC1 (single isomer, unassigned) [Compound 90]
Cmax (ng/mL): 1370
--
compound: Cc1cc(-n2nc3c(c2-n2ccn(-c4ccc5c(cnn5C)c4F)c2=O)[C@H](C)N(C(=O)c2cn4cc([C@@H]5CCOC(C)(C)C5)ccc4c2C2(c4noc(=O)[nH]4)CC2)CC3)cc(C)c1F (single isomer, unassigned) [Compound 19]
Cmax (ng/mL): 572

I. C[C@H]1c2c(nn(-c3ccc(F)c(C4CC4)c3)c2-n2ccn(-c3ccc4c(cnn4C)c3F)c2=O)CCN1C(=O)c1cn2cc([C@H]3CCOC(C)(C)C3)cc(F)c2c1C1(c2noc(=O)[nH]2)CC1 (single isomer, unassigned) [Compound 91]
II. C[C@H]1c2c(nn(-c3ccc(F)c(C4CC4)c3)c2-n2ccn(-c3ccc4c(cnn4C)c3F)c2=O)CCN1C(=O)c1cc2cc([C@@H]3CCOC(C)(C)C3)ccn2c1C1(c2noc(=O)[nH]2)CC1 (single isomer, unassigned) [Compound 73]
INPUT: Short answer wanted: higher Cmax, I or II ? Please respond with the label that marks your chosen entry.
OUTPUT: II
